This collection of values is drawn from PubChem BioAssay AID1030.

# Assayed system: Aldehyde dehydrogenase 1A1 (Homo sapiens) (UniProt P00352)
# Sequence (P00352 whole entry, looked up): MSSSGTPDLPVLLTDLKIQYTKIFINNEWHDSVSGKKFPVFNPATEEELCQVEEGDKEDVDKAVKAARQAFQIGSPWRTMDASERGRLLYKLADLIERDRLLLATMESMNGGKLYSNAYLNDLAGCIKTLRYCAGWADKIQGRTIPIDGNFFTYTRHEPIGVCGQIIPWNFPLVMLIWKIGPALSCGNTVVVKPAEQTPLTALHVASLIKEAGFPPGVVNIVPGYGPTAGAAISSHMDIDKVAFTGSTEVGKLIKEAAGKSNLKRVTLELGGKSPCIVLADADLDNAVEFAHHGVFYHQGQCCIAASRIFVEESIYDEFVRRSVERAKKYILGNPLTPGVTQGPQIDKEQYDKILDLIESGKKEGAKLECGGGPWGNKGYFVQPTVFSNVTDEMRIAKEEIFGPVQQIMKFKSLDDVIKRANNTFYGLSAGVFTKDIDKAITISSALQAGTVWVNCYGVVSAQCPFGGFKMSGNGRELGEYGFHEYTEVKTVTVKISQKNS
# Measurement description: qHTS Assay for Inhibitors of Aldehyde Dehydrogenase 1 (ALDH1A1)
# Condition info: Purified ALDH1A1, NADH fluorescence, propionaldehyde substrate; series mostly up to 75.3 µM
Screen size: about 220,000 compounds; about 16,000 (7.3%) were called active. Not shown: some 25% with an inconclusive outcome. The call rests on the fitted dose curve; in most records, active means well fitted inhibition curve with a large enough effect (not every such curve was filed as active); inconclusive means small, poorly fitted or top-dose-only effect, or another doubt; inactive means no such curve, though single readings can be large or run the other way. The entries come from a sample that favours actives as a whole.
Entry note: the call must match one of active, inactive

Q: Tell me the recorded outcome of this test for C/C(=N\NC(=O)c1cccnc1)c1ccc(-n2ccnc2)cc1 .
Ans: inactive

Q: Tell me the recorded outcome of this test for CCCCOc1ccc(C(=O)NCc2ccncc2)cc1 .
Ans: inactive

Q: Tell me the recorded outcome of this test for Cc1cccc(N2C(=O)C3C(c4ccccc4)OC4(C(=O)c5ccccc5C4=O)C3C2=O)c1 (stereo not given) .
Ans: inactive

Q: Tell me the recorded outcome of this test for CC(C)CC[n+]1ccn(C2=C([O-])c3ccccc3C(=O)/C2=N\S(=O)(=O)c2ccccc2)c1 .
Ans: active

Q: Tell me the recorded outcome of this test for O=C(c1cc(=O)c2ccccc2o1)N1CCN(c2ccccc2)CC1 .
Ans: inactive

Q: Tell me the recorded outcome of this test for CCn1c(=O)cc(SCC(=O)NCCC2=CCCCC2)c2ccccc21 .
Ans: active

Q: Tell me the recorded outcome of this test for COCCNC(=S)N(Cc1cccnc1)Cc1ccc(OC)c(OC)c1 .
Ans: inactive

Q: Tell me the recorded outcome of this test for Cc1nc(NC(=O)c2cccc(Cl)c2)sc1-c1csc(Nc2cccc(Cl)c2)n1 .
Ans: inactive

Q: Tell me the recorded outcome of this test for O=C(Nc1ccc(N2CCOCC2)nc1)c1c(F)cccc1F .
Ans: inactive

Q: Tell me the recorded outcome of this test for O=C(Cc1cc(=O)[nH][nH]1)N/N=C/c1ccccc1[N+](=O)[O-] .
Ans: inactive

Q: Tell me the recorded outcome of this test for CCCCC(=O)Nc1nc(C)c(-c2csc(Nc3ccc(Cl)cc3)n2)s1 .
Ans: active

Q: Tell me the recorded outcome of this test for Cc1cccc(N2C(=O)SC(SC(=Nc3ccccc3)Nc3ccccc3)C2=O)c1 (stereo not given) .
Ans: active

Q: Tell me the recorded outcome of this test for O=C(Cc1cccc2ccccc12)NCCC1=CCCCC1 .
Ans: inactive

Q: Tell me the recorded outcome of this test for Cc1cc(NC(=O)CSc2nnc(Nc3ccccc3F)s2)no1 .
Ans: inactive

Q: Tell me the recorded outcome of this test for Cc1ccc(Nc2nc(-c3sc(NC(=O)c4ccccc4)nc3C)cs2)cc1 .
Ans: active

Q: Tell me the recorded outcome of this test for Cc1ccsc1/C=N/n1c(=S)[nH]nc(C)c1=O .
Ans: inactive

Q: Tell me the recorded outcome of this test for O=C(CN1CCSCC1)N/N=C/c1ccc(F)cc1F .
Ans: active

Q: Tell me the recorded outcome of this test for CCOc1ccc(Cn2nnc(C(=O)NCc3ccccc3)c2N)cc1 .
Ans: inactive

Q: Tell me the recorded outcome of this test for Cc1nnc(SCC2=C(C(=O)O)N3C(=O)C(NC(=O)Cn4nc(C)c(Cl)c4C)C3SC2)s1 (stereo not given) .
Ans: inactive

Q: Tell me the recorded outcome of this test for CCOC(=O)c1c(CN(C)C)n(-c2ccccc2)c2cc(Br)c(O)cc12 .
Ans: inactive

Q: Tell me the recorded outcome of this test for c1ccc(CCn2nnnc2CN2CCN(C3CCCC3)CC2)cc1 .
Ans: inactive

Q: Tell me the recorded outcome of this test for N#Cc1c(C(F)(F)F)cc(-c2ccc(Cl)cc2)nc1SCC(=O)O .
Ans: inactive

Q: Tell me the recorded outcome of this test for Cc1ccc(-c2csc(NC(=O)Cn3[nH]c(=O)c4ccccc4c3=O)n2)cc1 .
Ans: inactive

Q: Tell me the recorded outcome of this test for CC(=O)c1c(-c2ccccc2)c2ccccc2[nH]c1=O .
Ans: inactive

Q: Tell me the recorded outcome of this test for CC(=O)NC(NC(=S)Nc1c(C)n(C)n(-c2ccccc2)c1=O)C(Cl)(Cl)Cl (stereo not given) .
Ans: inactive

Q: Tell me the recorded outcome of this test for CCCOC(=O)c1[nH]c2c(c1C)C(=O)CC(c1cccs1)C2 (stereo not given) .
Ans: inactive

Q: Tell me the recorded outcome of this test for CC1CCc2sc(C(=O)N/N=C/C3CCCCC3)cc2C1 (stereo not given) .
Ans: active

Q: Tell me the recorded outcome of this test for CCn1c(=O)cc(SCC(=O)NCc2ccc3c(c2)OCO3)c2ccccc21 .
Ans: inactive

Q: Tell me the recorded outcome of this test for N#Cc1c(N)nc2c(c1N)CC(C(F)(F)F)O2 (stereo not given) .
Ans: inactive

Q: Tell me the recorded outcome of this test for CCCCN(C)CCC(=O)Nc1ccc(Cl)cc1 .
Ans: inactive

Q: Tell me the recorded outcome of this test for NC(=O)Cc1nc2scc(-c3ccc(Cl)cc3)c2c(=O)[nH]1 .
Ans: inactive

Q: Tell me the recorded outcome of this test for O=C(CSc1nc2ccc(Nc3nc(N4CCOCC4)nc(N4CCOCC4)n3)cc2s1)NCc1ccco1 .
Ans: inactive

Q: Tell me the recorded outcome of this test for Fc1ccc(CNCc2ccc(Br)cc2)cc1 .
Ans: inactive

Q: Tell me the recorded outcome of this test for COCCC(=O)Nc1ccc2c(c1)CN(C(=O)CCOC)CC2 .
Ans: inactive

Q: Tell me the recorded outcome of this test for Cc1cc(NC(=O)CN2C(=O)NC(C)(CCc3ccccc3)C2=O)no1 (stereo not given) .
Ans: inactive

---

# Assayed system: Aldehyde dehydrogenase 1A1 (Homo sapiens)
# Measurement description: qHTS Assay for Inhibitors of Aldehyde Dehydrogenase 1 (ALDH1A1)
# Condition info: Purified ALDH1A1, NADH fluorescence, propionaldehyde substrate; series mostly up to 75.3 µM
About 16,000 (7.3%) of roughly 220,000 compounds were called active. Another 25% or so got no clear call; they are omitted. Calls come from the whole dose curve; as a rule, active = well fitted inhibition curve with a large enough effect (not every such curve was filed as active); inconclusive = small, poorly fitted or top-dose-only effect, or another doubt; inactive = no such curve, though single readings can be large or run the other way. For the sample, actives were picked, then their nearest neighbours and some compounds at random.
Entry note: the call must match one of yes (1) (active), no (0) (inactive)

Q: Tell me the recorded outcome of this test for Cc1ccc2c(c1)C(O)(CC(=O)c1cccc(-n3cccc3)c1)C(=O)N2 (stereo not drawn) .
Ans: no (0)

Q: Tell me the recorded outcome of this test for COc1ccc(OCc2ccc(-c3nc4ccccc4c(=O)n3N)o2)cc1 .
Ans: no (0)

Q: Tell me the recorded outcome of this test for CCNC(=O)COC(=O)CCNC(=O)c1cccc(C)c1 .
Ans: no (0)

Q: Tell me the recorded outcome of this test for CC(CO)NCC12CC3CC(CC(C3)C1)C2 (stereo not drawn) .
Ans: no (0)

Q: Tell me the recorded outcome of this test for O=C(/C=C/c1ccc(Cl)cc1)Nc1ccc(Br)cn1 .
Ans: no (0)

Q: Tell me the recorded outcome of this test for CSc1nc2ccc(NC(=O)c3c(F)cccc3F)cc2s1 .
Ans: no (0)

Q: Tell me the recorded outcome of this test for NNC(=O)COc1ccc(C2SCCS2)cc1 .
Ans: yes (1)

Q: Tell me the recorded outcome of this test for Oc1cccc(C2c3[nH]c4ccccc4c3CCN2Cc2cnn(-c3ccccc3)c2)c1 (stereo not drawn) .
Ans: no (0)

Q: Tell me the recorded outcome of this test for Cc1ccc(C(=O)CSc2nc3ccccc3c(=O)n2N)o1 .
Ans: yes (1)

Q: Tell me the recorded outcome of this test for Cn1c(NN)nc2sc3c(c2c1=O)CCC3 .
Ans: no (0)

Q: Tell me the recorded outcome of this test for CCC1(C)Cc2c(sc3nc(SC)[nH]c(=O)c23)CO1 (stereo not drawn) .
Ans: no (0)

Q: Tell me the recorded outcome of this test for NC(=O)COc1ccc(C23CC4CC(CC(C4)C2)C3)cc1 .
Ans: no (0)

Q: Tell me the recorded outcome of this test for Cc1ccc(C(=O)NN(CCC#N)C2=NS(=O)(=O)c3ccccc32)cc1 .
Ans: no (0)

Q: Tell me the recorded outcome of this test for Cc1cc(C)cc(NC(=O)N(C)Cc2ccccc2)c1 .
Ans: no (0)

Q: Tell me the recorded outcome of this test for CCOC(=O)c1cnc2[nH]c3ccccc3n2c1=O .
Ans: no (0)

Q: Tell me the recorded outcome of this test for CCN(CC)CC1(O)CCN(C(=O)c2ccc(Cl)c(Cl)c2)CC1 .
Ans: no (0)

Q: Tell me the recorded outcome of this test for C=CCNC(=S)NNc1ncnc2sc3c(c12)CC(C)(C)OC3 .
Ans: yes (1)

Q: Tell me the recorded outcome of this test for CC(=O)c1sc(NC(=O)CCCOc2ccccc2C)nc1C .
Ans: no (0)

Q: Tell me the recorded outcome of this test for COc1ccc([N+](=O)[O-])cc1C1NN=C(c2cccc3ccccc23)S1 (stereo not drawn) .
Ans: yes (1)

Q: Tell me the recorded outcome of this test for O=C1CC(c2ccccc2)C(=O)N1c1cccc(O)c1 (stereo not drawn) .
Ans: no (0)

Q: Tell me the recorded outcome of this test for COCCNC(=O)C(OC(=O)c1cccs1)c1ccc(F)cc1 (stereo not drawn) .
Ans: no (0)

Q: Tell me the recorded outcome of this test for COc1ccc([N+](=O)[O-])cc1NC(=O)C(C)OC(=O)C1c2ccccc2Oc2ccccc21 (stereo not drawn) .
Ans: no (0)

Q: Tell me the recorded outcome of this test for O=C(CCN1CCN(C/C=C/c2ccccc2)CC1)Nc1cccc(F)c1 .
Ans: no (0)

Q: Tell me the recorded outcome of this test for C(=N/Nc1cc(N2CCOCC2)nc(N2CCOCC2)n1)/c1ccccc1 .
Ans: no (0)

Q: Tell me the recorded outcome of this test for CN(C)CCSc1nc(N)c2c3c(sc2n1)COC(C)(C)C3 .
Ans: no (0)

Q: Tell me the recorded outcome of this test for CCOc1ccccc1/C=N/NC(=O)CNC(=O)COc1ccccc1 .
Ans: no (0)

Q: Tell me the recorded outcome of this test for COc1ccc(-n2c(O)c(C=NCC(c3ccco3)N3CCCC3)c3ccccc3c2=O)cc1OC (stereo not drawn) .
Ans: no (0)

Q: Tell me the recorded outcome of this test for Cc1cccc(N2C(=O)CC(SC(N)=Nc3ccccc3)C2=O)c1 (stereo not drawn) .
Ans: no (0)

Q: Tell me the recorded outcome of this test for O=C(COc1ccc(Cl)cc1[N+](=O)[O-])N1CCCCC1 .
Ans: no (0)

Q: Tell me the recorded outcome of this test for CSCCC(NC(=O)c1ccc(=O)n(C)n1)c1nc2ccccc2[nH]1 (stereo not drawn) .
Ans: no (0)

Q: Tell me the recorded outcome of this test for c1ccc(-c2cc(N3CCCCC3)c3ccccc3n2)cc1 .
Ans: no (0)

Q: Tell me the recorded outcome of this test for COc1ccccc1C1CCN(c2ccc([N+](=O)[O-])cn2)CC1 .
Ans: no (0)

Q: Tell me the recorded outcome of this test for CN(Cc1nc2ccc(F)cc2[nH]1)Cc1nc(CC2CC2)no1 .
Ans: no (0)
